Reported pIC50 values for the following compounds.
STUDY_TARGET: Recombinant Human ENPP-2/Autotaxin (Homo sapiens, UniProt Q13822)
PROTOCOL_DETAILS: LysoPLD activity measurement (autotaxin enzyme inhibition, choline release, TOOS reagent)
EXPERIMENTAL_CONTEXT: LysoPLD inhibitory activity; substrate 14:0 LysoPC; absorbance at 555 nm
pIC50: −log10 of the molar value.

{"columns": ["COMPOUND", "STUDY_TARGET", "pIC50"],
 "data": [
  ["COc1ccc(-n2c(=O)n(Cc3cccc(C(=O)O)c3)c3ccc(Cl)cc32)cc1 [Example 5]", "Recombinant Human ENPP-2/Autotaxin (Homo sapiens, UniProt Q13822)", "7.00 to 8.00"],
  ["O=C(O)c1cccc(C2(n3c(=O)n(-c4ccc(-c5nnc(C6CCCC6)o5)cc4)c4cc(Cl)ccc43)CC2)c1 [Example 266]", "Recombinant Human ENPP-2/Autotaxin (Homo sapiens, UniProt Q13822)", "> 8.00"],
  ["CC(C)(O)c1ccc(-n2c(=O)n(C3(c4cccc(C(=O)O)c4)CC3)c3ccc(Cl)cc32)cc1 [Example 246]", "Recombinant Human ENPP-2/Autotaxin (Homo sapiens, UniProt Q13822)", "> 8.00"],
  ["O=C(O)c1cccc(C2(n3c(=O)n(-c4ccc(C56CC7CC(CC(C7)C5)C6)cc4)c4cc(Cl)ccc43)CC2)c1 [Example 179]", "Recombinant Human ENPP-2/Autotaxin (Homo sapiens, UniProt Q13822)", "6.00 to 7.00"],
  ["C[C@H]1COCCN1C(=O)c1ccc(-n2c(=O)n(C3(c4cccc(C(=O)O)c4)CC3)c3ccc(Cl)cc32)cc1 [Example 127]", "Recombinant Human ENPP-2/Autotaxin (Homo sapiens, UniProt Q13822)", "> 8.00"],
  ["O=C(O)c1cccc(C2(n3c(=O)n(-c4ccc(CC5COC5)cc4)c4cc(Cl)ccc43)CC2)c1 [Example 240]", "Recombinant Human ENPP-2/Autotaxin (Homo sapiens, UniProt Q13822)", "> 8.00"],
  ["O=C(O)c1cccc(Cn2c(=O)n(-c3ccc(NS(=O)(=O)CC(F)(F)F)cc3)c3cc(Cl)ccc32)c1 [Example 26]", "Recombinant Human ENPP-2/Autotaxin (Homo sapiens, UniProt Q13822)", "6.00 to 7.00"]
]}
